The reported numbers originate from ChEMBL document CHEMBL1135401.

What pIC50 was measured for each of the following?
Molecular target: Dihydrofolate reductase (Homo sapiens)
Sequence (P00374 whole entry): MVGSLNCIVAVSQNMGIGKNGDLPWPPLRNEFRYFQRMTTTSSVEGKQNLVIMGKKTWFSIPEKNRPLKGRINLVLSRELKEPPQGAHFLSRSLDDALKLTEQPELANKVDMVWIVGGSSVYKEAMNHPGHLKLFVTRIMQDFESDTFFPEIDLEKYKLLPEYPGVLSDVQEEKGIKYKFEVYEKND
Assay: Antimycobacterial activity against human dihydrofolate reductase (hDHFR)
Please keep in mind that pIC50 is minus log10 of the molar concentration; only the number is needed.

## Input pIC50 for Cc1c(CN(C)c2cccc3c2CCCC3)cnc2nc(N)nc(N)c12 ?
## Output 6.15

## Input Okay, and CCCOc1ccc(OCCC)c(NCc2cnc3nc(N)nc(N)c3c2C)c1 ?
## Output 5.14

## Input Okay, and COc1cc(-c2ccccc2)ccc1NCc1cnc2nc(N)nc(N)c2c1C ?
## Output 7.17

## Input Okay, and Cc1ccc(NCc2cnc3nc(N)nc(N)c3c2C)cc1Br ?
## Output 8.43

## Input Okay, and CCOc1ccc(OCC)c(NCc2cnc3nc(N)nc(N)c3c2C)c1 ?
## Output 5.64

## Input Okay, and COc1ccc(OC)c(CCc2cnc3nc(N)nc(N)c3c2C)c1 ?
## Output 5.57

## Input Okay, and Cc1c(CNc2ccc(Cl)cc2)cnc2nc(N)nc(N)c12 ?
## Output 7.57

## Input Okay, and COc1cc(SCc2cnc3nc(N)nc(N)c3c2C)cc(OC)c1OC ?
## Output 5.92

## Input Okay, and Cc1c(CNc2ccccc2Cl)cnc2nc(N)nc(N)c12 ?
## Output 6.92

## Input Okay, and Cc1c(CNc2cnc3ccccc3c2)cnc2nc(N)nc(N)c12 ?
## Output 7.92

## Input Okay, and Cc1c(CNc2cc(C(F)(F)F)ccc2Br)cnc2nc(N)nc(N)c12 ?
## Output 8.49

## Input Okay, and COc1ccc(OC)c(SCc2cnc3nc(N)nc(N)c3c2C)c1 ?
## Output 5.60

## Input Okay, and Cc1ccc(C)c(NCc2cnc3nc(N)nc(N)c3c2C)c1 ?
## Output 7.24

## Input Okay, and Cc1c(CNc2ccc(Cl)c(Cl)c2)cnc2nc(N)nc(N)c12 ?
## Output 8.30

## Input Okay, and COc1ccc(C)cc1NCc1cnc2nc(N)nc(N)c2c1C ?
## Output 6.52

## Input Okay, and Cc1c(CNc2cccc3cnccc23)cnc2nc(N)nc(N)c12 ?
## Output 8.40

## Input Okay, and Cc1c(CNc2ccc3c4c(cccc24)-c2ccccc2-3)cnc2nc(N)nc(N)c12 ?
## Output 8.21

## Input Okay, and Cc1c(CNc2cc(Br)ccc2Br)cnc2nc(N)nc(N)c12 ?
## Output 8.34

## Input Okay, and COCc1c(CNc2cc(OC)c(OC)c(OC)c2)cnc2nc(N)nc(N)c12 ?
## Output 5.89

## Input Okay, and CCc1c(CNc2cc(C(F)(F)F)ccc2OC)cnc2nc(N)nc(N)c12 ?
## Output 8.44

## Input Okay, and Cc1c(CNc2ccc3c(c2)Cc2ccccc2-3)cnc2nc(N)nc(N)c12 ?
## Output 8.17

## Input Okay, and COc1cc(Cl)c(C)cc1NCc1cnc2nc(N)nc(N)c2c1C ?
## Output 8.00

## Input Okay, and COCc1c(CNc2ccc(OC)c(OC)c2)cnc2nc(N)nc(N)c12 ?
## Output 5.21
